Measurement notes: yeast display, Sf9 membrane polyspecificity reagent, FACS + sequencing; frameworks hold sequencing errors
Metric: polyreactivity (PSR sort gate)

* QVQLVESGGGLVQAGGSLSLSCAASGRTFQSYAMGWYRQAPGKERELVATITSRGGSTYYADSVKGRFTISRDNAKYTVYLQMNSLKPEVTAVYYCAKRFKSYLGYDYWGQGTQVTVSS | low polyreactivity
* QVQLVESGGGLVQAGGSLRLSCAASGSIFYSYAMGWYRQAPGKERELVAAISWDASTYYADSVKGRFTISRDNAKNTVYLQMNSLKPEDTAVYFCNADIPYYFVYDAYDYWGQGTQVTVSS | low polyreactivity
* QVQLVESGGGIVQAGGSLRLRCAASGSTFYVYHMGWDRPAPGKERELVAAISSGAGSTYYADSVKGRFTISRDNAKNTVYLQMNSLKRKIPRSITALLFTVNGGGSRSHDYWAQGTQVTVSS | low polyreactivity
* QVQLVESGGGLVQAGGSLRLSCAASGFTFDFYAMGWYRPAPGKERELVAAISRSGGRTYYADSVKGRFTISRDNAKNTVYLQMNSLKPEDTAVYYCNTGFFYYNFRYYYWGQGTQVTVSS | low polyreactivity
* QVQLVESGGGLVQAGGSLRISCAASGSTFYCYAMGWYRQAPGKERELVAAIRRNGDGTYYADSVKGRFTISRDNAKNTVYLQMNSLKPVDTAVYYCAARRFIPRFNYWGQGTQVTVSS | high polyreactivity
* QVQLVESGGGLVQAGGSLRLSCAASGSTFWTNAMGWYRQAPGKERELVATITYSTGTYADSVKGRFTISRDNAKNTVYLQMNSLKPEDTAVYYCAADFWYRTVYGYFGYVYWGQGTQVTVSS | low polyreactivity
* QVQLVESGGGLVQAGGSLRLSCAASGLTFIINDMGWYRQAPGKERELVAGITNGGSTYADSVKGRFTISRDNAKNTVYLQMNCLKPEDTAVYYCAVPWYDFARSIQVDEYDYWGQGTQVTVSS | low polyreactivity
* QVQLVESGRGLVQAGGSLRLSCAASGSTFPPSAMGWYRQAPGKERELVAAIDVSGGTTFYADSVKGRFTISRDNAKNTVYLQMNSLKPEDTAVYYCAIGSVSARFEYWGQGTQVTVSS | low polyreactivity
* QVQLVESGGGLVQAGGSLRLSCAASGSTFAGNAMGWYRHAPGKERELVAAIDSSTGSTYYADSVKGRFTISLDNAKNTVYLQMNSLKPEDTAVYYCNKTSFLVKLDFWGQGTQVTVSS | low polyreactivity
* QVQLVESGGGLVQAGGSLRLSCAASGFIFAPNVMGWYRQAPGKERELVAAINISGGSTSYADSVKGRFTISRDNAKNTVYLQMNSLKPEDTAVYYCAAEIPAYAYSYSYDYWGQGTQVTVSS | low polyreactivity
* QVQHVESGGGLVQAGGSLRLSCAASGFTIYYYAMGWYRQAPGKERELVAAISTRDGNTYYADSVKGRFTMSRDNAKNTVYLQMNSLKPEDTAVDYCAADYFRYYPYDYWGQGTQVTVSS | low polyreactivity
* QVQLVESGGGLVQAGGSLRLSCAASGSTFYQYVMGWYRQAPGKERELVAAISGSGGSTYYADSVKGRFTISRDNAKNTVYLQMNSLKPEDTAVYYCAAVGRSKRDGYWGQGTQVTVSS | high polyreactivity
* QVQLVESGGGLVQAGGSLRLSCAASGITFQYYTMGWYRQAPGKERELVAAISWSTSSTYYADSVKGRFTISRDNAKNTVYLQMNSLKPEDTAVYYCAARYTTRRYYYWGQGTQVTVSS | high polyreactivity
* QVQLVESGGGLVQAGGSLRLSCAASGRTFVYNAMGWYRQAPGKERELVAAISSDGASTYYADSVKGRFTISRDNAKNTVYLQMNSLKPEDTAVYYCAADLLVSWWLDYDYWGQGTQVTVSS | low polyreactivity
* QVQLVESGGGLVQAGGSLRLSCAASGSTFKYYAMGWYRQAPGKERELVASITSGGSTYYADSVKGRFTISRDNAKNTVYLQMNSLKPEDTAVYYCNKRWITSYYTRYDYWGQGTQVTVSS | high polyreactivity
* QVQLVESGGGLVQAGGSLRLSCAASGSTFDYYVMGWYRQAPGKERELVAAISHNAGSTYYADSVKGRFTISRDNAKNTVYLQMNSLKPEDTAVYYCAAPDYRNGVRYPLDYWGQGTQVTVSS | low polyreactivity
* QVQLVESGVGLVQAGGSLRLSCAASGRIFYNNVRGWYRQAPGKERELVAGISGNGGSTYYPDSVKGRFTISRDNAKNTVYLQMNSPKPEDTAVYYCAARSSFRTLIFYQKFDYWGQGTQVTVSS | low polyreactivity
* QVRLVESGGGLVQAGGSLRLSCAASGSTFKTYAMGWYRQAPGKERELVAAISAGGGSTYYADSVKGRFTISRDNAKNTVYLQMYSLKPEDTAVYYCAAAYIYAGWDYEYWGQGTQVTVSS | low polyreactivity
* QVQLVESGGGLVQAGGSLRLSCAASGRTFPVNAMGWYRQAPGKERELVAAITTNGGRTYYADSVKGRFTISRDNAKNTVYLQMNSLKPEDTAVYYCATRAYNDKRYGYWGQGTQVTVSS | high polyreactivity
* QVQLVESGGGLVQAGGSLRLSCAASGRIIRWYAMAWYRQAPGKERELVAAITWRGGSTDYADSVKGRFTISRDNAKNTVYLQMNSLKPEDTAVYYCNAAGFKTSWYYYGDWYDYWGQGTQVTVSS | high polyreactivity
* QVQLVESGGGFVQAGCSLRLSCAASGSIFLYNAMGWYRQAPGNDRELVATISYIGGRTYYADSVKGRFSISRDKAKNTVYSQMNSLKPEDTAVYYCAAEYYVISSPSFYEYDYWGQGTQVTVSS | low polyreactivity

Reference source for all entries: the nanobody polyreactivity screen of Harvey et al. (2022)
